TEST NAME: protein stability index of a GFP-peptide fusion (yeast GPS) (PSI 1-4); higher = more stable; sorted into four equal gates, so the index is relative within each strain
ASSAY SETUP: ubr1∆

RESIDUE CODES: LFKKFNNDFKLSIDKVL [RET1]
protein stability index: 2.67
--
RESIDUE CODES: PKNIEPPLTSQYSTRHD [SWI3]
protein stability index: 3.03
--
RESIDUE CODES: YHTNPGHSQFTSHYQNY [RPN4]
protein stability index: 3.04
--
RESIDUE CODES: TPLRDEVTDKNYYYLFD [PRP8]
protein stability index: 3.11
--
RESIDUE CODES: PNRIKLSKEVPFSYLID [SRB5]
protein stability index: 2.12
--
RESIDUE CODES: QLSKAAKAAAALAGGKK [RPS25A]
protein stability index: 1.77
--
RESIDUE CODES: GLVKQHLDSFNYFVDTD [RET1]
protein stability index: 3.36
--
RESIDUE CODES: AGGGSNKSSVRPTGGAN [MED6]
protein stability index: 3.11
--
RESIDUE CODES: KEISARRYKLLTATPNS [POP1]
protein stability index: 2.5
--
RESIDUE CODES: EDFEHNNLSSMNLDFDI [MCD1]
protein stability index: 3.24
--
RESIDUE CODES: EPQGAVTHMDQIFVRGS [SMD3]
protein stability index: 2.56
--
RESIDUE CODES: VFHAAFEGDSNMLICAP [BRR2]
protein stability index: 2.62
--
RESIDUE CODES: RQPANTKIGAKRIHSVR [RPS8A]
protein stability index: 3.04
--
RESIDUE CODES: FLQPLLLVGLIKTFYWL [NUT1]
protein stability index: 1.8
--
RESIDUE CODES: TFIDKERHQKQLNEKLV [YCS4]
protein stability index: 2.65
--
RESIDUE CODES: ILSINAIDYEPEYEKAM [SMC1]
protein stability index: 3.13
--
RESIDUE CODES: AYEEEEENEDNDGNNRT [NUT1]
protein stability index: 3.46
--
RESIDUE CODES: SSKLYQMQQQQQAQAQA [GAL11]
protein stability index: 1.82
--
RESIDUE CODES: TFTIKEFVSYYYAHSIP [SNU114]
protein stability index: 1.88
--
RESIDUE CODES: DRYGNRYFWLDHNGVPF [ITC1]
protein stability index: 2.78
--
RESIDUE CODES: NGVVIATEKKSSSPLAM [PRE8]
protein stability index: 3.07
--
RESIDUE CODES: TTYSVDDYYKEIIGGGS [ISW2]
protein stability index: 3.33
--
RESIDUE CODES: AEDGSRSTKDMIDAVFE [SNF6]
protein stability index: 3.14
--
RESIDUE CODES: FKERQMMVSYPKIDEDD [AAR2]
protein stability index: 3.35
--
RESIDUE CODES: TVDLALFGSPPFILEYD [YMR129W/POM152]
protein stability index: 2.7
--
RESIDUE CODES: YLDQHKRTRLESLKNLN [SMC3]
protein stability index: 2.58
--
RESIDUE CODES: ISSRTYGQRAVLKFAAH [RPS0B]
protein stability index: 1.64
--
RESIDUE CODES: ATPFRQWFEAHYGQTLG [RPS8A]
protein stability index: 2.57
--
RESIDUE CODES: PRQLHNTHWGLVCPAET [RPB2]
protein stability index: 1.2
--
RESIDUE CODES: TRLVQLREFRITHNTNI [GRR1]
protein stability index: 1.38
--
RESIDUE CODES: EYYAKKRAFTKKVASAN [RPL16A]
protein stability index: 1.57
--
RESIDUE CODES: TLLPGLQDEVMNIKPVQ [RPS2]
protein stability index: 1.09
--
RESIDUE CODES: VLQNVFKLVSTPSSNSN [MED1]
protein stability index: 1.36
--
RESIDUE CODES: CIIFITFEFINIAFDAH [YML031W/NDC1]
protein stability index: 1.32
--
RESIDUE CODES: PRGVLLYGPPGTGKTML [RPT3]
protein stability index: 2.72
--
RESIDUE CODES: QLVIQQGTGKKTASLGN [ISW2]
protein stability index: 3.41
--
RESIDUE CODES: CFVLGIASMSTVRASSL [SMC2]
protein stability index: 1.94
--
RESIDUE CODES: DGLEKAAFNGVTFKDKY [FAS2]
protein stability index: 2.09
--
RESIDUE CODES: RVEKIPEIPLVVSTDLE [RPL4A]
protein stability index: 2.77
--
RESIDUE CODES: YPDLKAFHNNLKFLYLL [MED1]
protein stability index: 1.93
--
RESIDUE CODES: NAARKAEASGEAAEEAE [RPS9B]
protein stability index: 2.89
--
RESIDUE CODES: GWWGHMGGPKQKGITSY [QCR8]
protein stability index: 1.67
--
RESIDUE CODES: ANKEKRAIILERNAAYQ [RPL7A]
protein stability index: 1.32
--
RESIDUE CODES: SKMYNTDKKAFLGALKY [PRP8]
protein stability index: 2.63

* * *

TEST NAME: protein stability index of a GFP-peptide fusion (yeast GPS) (PSI 1-4); higher = more stable; sorted into four equal gates, so the index is relative within each strain
ASSAY SETUP: ubr1∆

RESIDUE CODES: NKDASLALQRGATVFVN [DPB4]
protein stability index: 2.32
//
RESIDUE CODES: TAASEARKHKLKTLVQG [RPS27A]
protein stability index: 3.04
//
RESIDUE CODES: LSEEKEVIFTDVLKSQA [MCD1]
protein stability index: 2.77
//
RESIDUE CODES: FLTPMDSIDLAPNTLTN [YML103C/NUP188]
protein stability index: 1.26
//
RESIDUE CODES: QANTEPENITKREASRG [MCD1]
protein stability index: 3.13
//
RESIDUE CODES: VLIKMVKMLRDNPGYKA [SIR3]
protein stability index: 3.33

* * *

Measured protein stability index, listed per entry for reference.
TEST NAME: protein stability index of a GFP-peptide fusion (yeast GPS) (PSI 1-4); higher = more stable; sorted into four equal gates, so the index is relative within each strain
ASSAY SETUP: pdr5∆
ENDPOINT LABEL: protein stability index

RESIDUE CODES: TPGSVSLSAYNLTDEGY [PRP8]
READOUT VALUE: 2.5

RESIDUE CODES: EKLLRHVDSLIEDFVDG [SRB7]
READOUT VALUE: 3.2

RESIDUE CODES: VDREAMLKPNIIFQQLL [YCG1]
READOUT VALUE: 2.78

RESIDUE CODES: YGEATSPFGAYGEAPTS [RPO21]
READOUT VALUE: 2.58

RESIDUE CODES: LKNPEIFQRVGIKPPKG [RPT4]
READOUT VALUE: 2.18

RESIDUE CODES: AQFYLGKRIAYVYRASK [RPL33A]
READOUT VALUE: 1.62

RESIDUE CODES: YQISAYQTRARQKARTD [RPR2]
READOUT VALUE: 2.31

RESIDUE CODES: VDVELITSINVENDTFI [FAS2]
READOUT VALUE: 3.37

RESIDUE CODES: TEFEFYLLEELESYLIV [SSN8]
READOUT VALUE: 2.72

RESIDUE CODES: KTNIIEKAMDYAISIEN [RPN12]
READOUT VALUE: 3.25

RESIDUE CODES: IDQDIHGIVFQHPFPLA [SSN2]
READOUT VALUE: 2.25

RESIDUE CODES: TQLDDLQHELMISIIKL [YML103C/NUP188]
READOUT VALUE: 2.29

RESIDUE CODES: GVSRQIAASAFLSLLNL [REC8]
READOUT VALUE: 1.31

RESIDUE CODES: GETMWVPIKSSKSGRIF [RPN13]
READOUT VALUE: 2.6

RESIDUE CODES: SVSLVDEFPSELSDSDR [SIR4]
READOUT VALUE: 2.57

RESIDUE CODES: TGSNDRCIGDSDNVSFE [YMR129W/POM152]
READOUT VALUE: 2.73

RESIDUE CODES: IEMKDVSSKPSKPESSV [MED1]
READOUT VALUE: 3.33

RESIDUE CODES: QARTATLKYICAECSSK [RPC10]
READOUT VALUE: 2.98

RESIDUE CODES: IVSEDHIILDTISECNL [MED1]
READOUT VALUE: 3.19

RESIDUE CODES: YHLHPTFANPNRTFTDP [TAF14]
READOUT VALUE: 2.02

RESIDUE CODES: PKMKDEEYDDDDDNSNV [SNF2]
READOUT VALUE: 3.37

RESIDUE CODES: FPRDGKAPEAEQVLSAA [RPL13B]
READOUT VALUE: 2.9

RESIDUE CODES: KREESESAAVYNGRGAR [SNF2]
READOUT VALUE: 3.02

RESIDUE CODES: KTESQDVETRVQNLEQT [DPB4]
READOUT VALUE: 3.32

RESIDUE CODES: ILDPQVTRFTTWNGSPF [YJL039C/NUP192]
READOUT VALUE: 2.03

RESIDUE CODES: LPNIYPSTRCKLKLLRM [RPT2]
READOUT VALUE: 1.43

RESIDUE CODES: GVILMFAAILVLLVLPF [COB]
READOUT VALUE: 1.34

RESIDUE CODES: AATVRSTIRRLREMVEA [RPL43A]
READOUT VALUE: 2.8

RESIDUE CODES: SYTDAQDKSKKIMNVTT [YMR129W/POM152]
READOUT VALUE: 2.66

RESIDUE CODES: DNSEYSRNGDFPRTRFE [RPN10]
READOUT VALUE: 3.12

RESIDUE CODES: KKDSKPAFSFGISNGSE [YLR335W/NUP2]
READOUT VALUE: 3.12

RESIDUE CODES: PTTVSYIFCISRTIGMV [SCL1]
READOUT VALUE: 1.97

RESIDUE CODES: FDVVLTTFEYIIKERAL [SNF2]
READOUT VALUE: 2.36

RESIDUE CODES: KFQETLLRQKIEQCKHP [ISW2]
READOUT VALUE: 1.47

RESIDUE CODES: KVVTKKYCEIMGDNSQL [SNF2]
READOUT VALUE: 3.25

RESIDUE CODES: GVEEVEGEYELTEAVED [RPL5]
READOUT VALUE: 3.45

RESIDUE CODES: QQQGQIPQSQQVPQVRS [SNF5]
READOUT VALUE: 2.73

RESIDUE CODES: FALIDYFYDLDVLKDGE [BRN1]
READOUT VALUE: 2.76

RESIDUE CODES: FELSFTGAPPYYYNTKI [YMR129W/POM152]
READOUT VALUE: 1.99

RESIDUE CODES: HGVSFKKRAPRAVKEIK [RPL31A]
READOUT VALUE: 2.73

RESIDUE CODES: EHGMNAPSVPEFIYLTK [SNF2]
READOUT VALUE: 3.28

RESIDUE CODES: IRENKVTYSRVSKKVDV [BRN1]
READOUT VALUE: 2.93

RESIDUE CODES: QGTNSVPNSIGNIFSNI [SNF5]
READOUT VALUE: 3.12

RESIDUE CODES: NIELHSLYTSREPRVVS [PUP1]
READOUT VALUE: 3.1

RESIDUE CODES: MAKDIEISASESKFILE [RRP45]
READOUT VALUE: 3.06

RESIDUE CODES: NKEYTLVHGIFGAKMSR [SIN4]
READOUT VALUE: 2.98

RESIDUE CODES: KEDSTIQDSNGDVKNME [SWI3]
READOUT VALUE: 3.38

RESIDUE CODES: NAASGSNSNVTNPSSIF [YOR098C/NUP1]
READOUT VALUE: 2.74

RESIDUE CODES: KMDMICRNINRKHRNAQ [DIS3]
READOUT VALUE: 2.5
